Biological target: α-amylase from porcine pancreas (Sus scrofa)
Construct: A saline suspension of α-amylase from porcine pancreas; purchased Sigma Aldrich (Steinheim, Germany) Lot #SLBN9170V (catalogue number not given); host or cells: porcine pancreas (tissue-derived)
Sequence (P00690 16-511): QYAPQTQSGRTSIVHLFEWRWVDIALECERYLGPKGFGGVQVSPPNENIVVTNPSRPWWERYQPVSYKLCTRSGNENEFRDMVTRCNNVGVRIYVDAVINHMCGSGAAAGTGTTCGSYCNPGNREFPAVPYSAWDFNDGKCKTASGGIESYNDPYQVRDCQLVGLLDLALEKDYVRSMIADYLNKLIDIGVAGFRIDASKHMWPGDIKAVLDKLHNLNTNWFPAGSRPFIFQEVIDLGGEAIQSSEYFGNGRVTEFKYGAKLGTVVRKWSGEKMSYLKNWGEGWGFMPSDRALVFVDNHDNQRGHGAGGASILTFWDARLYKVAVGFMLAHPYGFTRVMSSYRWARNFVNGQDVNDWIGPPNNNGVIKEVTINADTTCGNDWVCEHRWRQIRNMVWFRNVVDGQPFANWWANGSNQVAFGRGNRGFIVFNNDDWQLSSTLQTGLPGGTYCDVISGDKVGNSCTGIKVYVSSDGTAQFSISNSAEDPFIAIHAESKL
Experiment: α-amylase enzyme activity assay, GalG2CNP conversion, UV/Vis detection of CNP at 405 nm
Type: biochemical
Details: Michaelis Menten fit; inhibitor c 25 µM
Consider the following compounds; for each one, report its Kmapp.

compound: COc1cc(-c2[o+]c3cc(O)cc(O)c3cc2O[C@@H]2O[C@H](CO)[C@@H](O)[C@H](O)[C@H]2O)ccc1O [Peo-glc, peonidin-3-glucoside]
result.value: 242 ± 8 µM

compound: OC[C@H]1O[C@@H](Oc2cc3c(O)cc(O)cc3[o+]c2-c2ccc(O)c(O)c2)[C@H](O)[C@@H](O)[C@@H]1O [Cyd-glc, cyanidin-3-glucoside]
result.value: 285 µM

compound: OC[C@H]1O[C@@H](Oc2cc3c(O)cc(O)cc3[o+]c2-c2cc(O)c(O)c(O)c2)[C@H](O)[C@@H](O)[C@@H]1O [Dpd-glc, delphinidin-3-glucoside]
result.value: 273 ± 52 µM

Read the next record carefully.
Known value: α-amylase from porcine pancreas (Sus scrofa) Kmapp of the compound OC[C@H]1O[C@@H](Oc2cc3c(O)cc(O)cc3[o+]c2-c2ccc(O)cc2)[C@H](O)[C@@H](O)[C@@H]1O [Plg-glc, pelargonidin-3-glucoside] equals 258 ± 13 µM
